Counter-ions that a name gives are not always drawn.
REPORTED PROPERTY: melting point

[[record]]
compound = "CC(C)C(=O)N1CCC(Oc2ncc(-c3cnc4ccccc4c3)cn2)CC1 (as salt: HCl)"
reported_property = "melting point"
experimental_result = "124 to 130 °C"

[[record]]
compound = "CC(C)C(=O)N1CCC(Oc2ccc(-c3cnc4ccccc4c3)nc2)CC1 (as salt: HCl)"
reported_property = "melting point"
experimental_result = "99 to 102 °C"

[[record]]
compound = "O=C(C1CC1)N1CCC(Oc2ncc(-c3cnc4ccccc4c3)cn2)CC1 (as salt: HCl)"
reported_property = "melting point"
experimental_result = "150 to 153 °C"

[[record]]
compound = "O=C(NCC1CC1)N1CCC(Oc2ccc(-c3ccc4nccn4c3Cl)cc2)CC1"
reported_property = "melting point"
experimental_result = "183 to 185 °C"

